Measured mortality at 168 h, listed per entry for reference.
EXPERIMENT DESCRIPTION: Test 2: Acute toxicity (mortality after seven days)
Type: in vivo
CONDITIONS: mouse, in vivo, po, 8000 mg/kg p.o., male ddY mice

[
  {
    "COMPOUND": "CCCCCCCCCCCCCCCCOc1c2ncnc(SCC(=O)OCC)c2nn1C [Example 1]",
    "mortality at 168 h, %": 0
  },
  {
    "COMPOUND": "CCCCCCCC/C=C\\CCCCCCCCOc1c2ncnc(SCC(=O)OCC)c2nn1C [Example 9]",
    "mortality at 168 h, %": 0
  },
  {
    "COMPOUND": "CCCCC/C=C\\C/C=C\\CCCCCCCCOc1c2ncnc(SCC(=O)OCC)c2nn1C [Example 10]",
    "mortality at 168 h, %": 0
  }
]

* * *

System: emulsion-induced hyperlipidemic rats
EXPERIMENT DESCRIPTION: Test 1: antihyperlipidemic activity in emulsion-induced hyperlipidemic rats (serum Chol, HDL-Chol, liver weight)
Format: in vivo, male S.D. rats
CONDITIONS: liver weight per 100 g body weight, 300 mg/kg/day, 3 days, vs control
PROPERTY: Degree of hepatomegaly (change rate of the liver weight)

[
  {
    "MOLECULE": "CCCCCCCCCCCCCCCOc1c2ncnc(SCC(=O)OCC)c2nn1C [Example 4]",
    "VALUE MEASURED": "+2%"
  },
  {
    "MOLECULE": "CCCCCCCC/C=C\\CCCCCCCCOc1c2ncnc(SCC(=O)OCC)c2nn1C [Example 9]",
    "VALUE MEASURED": "+5%"
  },
  {
    "MOLECULE": "CCCCCCCCCCCCCCCCCOc1c2ncnc(SCC(=O)OCC)c2nn1C [Example 5]",
    "VALUE MEASURED": "+3%"
  },
  {
    "MOLECULE": "CCCCCCCCCCCCCCCCCCOc1c2ncnc(SCC(=O)OCC)c2nn1C [Example 6]",
    "VALUE MEASURED": "-1%"
  },
  {
    "MOLECULE": "CCOC(=O)C(C)(C)Oc1ccc(Cl)cc1 [Clofibrate, reference compound]",
    "VALUE MEASURED": "+22%"
  },
  {
    "MOLECULE": "CCCCCCCCCCCCCCCCOc1c2ncnc(SCc3ccccc3)c2nn1C [Example 19]",
    "VALUE MEASURED": "+8%"
  },
  {
    "MOLECULE": "CCCCCCCCCCCCCCCCOc1c2ncnc(SCCCCCC)c2nn1C [Example 23]",
    "VALUE MEASURED": "0%"
  },
  {
    "MOLECULE": "CCCCCCCCCCCCCCCCOc1c2ncnc(SCC(=O)c3ccccc3)c2nn1C [Example 18]",
    "VALUE MEASURED": "+4%"
  },
  {
    "MOLECULE": "CC/C=C\\C/C=C\\C/C=C\\CCCCCCCCOc1c2ncnc(SCC(=O)OCC)c2nn1C [Example 11]",
    "VALUE MEASURED": "+20%"
  },
  {
    "MOLECULE": "CCCCCCCCCCCCCCCCOc1c2ncnc(SCC(=O)OCC)c2nn1C [Example 1]",
    "VALUE MEASURED": "+8%"
  },
  {
    "MOLECULE": "CCCCC/C=C\\C/C=C\\CCCCCCCCOc1c2ncnc(SCC(=O)OCC)c2nn1C [Example 10]",
    "VALUE MEASURED": "+12%"
  },
  {
    "MOLECULE": "CCCCCCCCCCCCCCCCOc1c2ncnc(SCCCC(=O)OCC)c2nn1C [Example 17]",
    "VALUE MEASURED": "+5%"
  }
]
